Values were extracted from patent US20220204580A1.

# Measured target: T1, human amylin receptor (calcitonin receptor co-expressed with receptor activity modifying protein, RAMP3) (human, UniProt P30988 25-474; O60896 24-148)
# T1 sequence (looked up) 1: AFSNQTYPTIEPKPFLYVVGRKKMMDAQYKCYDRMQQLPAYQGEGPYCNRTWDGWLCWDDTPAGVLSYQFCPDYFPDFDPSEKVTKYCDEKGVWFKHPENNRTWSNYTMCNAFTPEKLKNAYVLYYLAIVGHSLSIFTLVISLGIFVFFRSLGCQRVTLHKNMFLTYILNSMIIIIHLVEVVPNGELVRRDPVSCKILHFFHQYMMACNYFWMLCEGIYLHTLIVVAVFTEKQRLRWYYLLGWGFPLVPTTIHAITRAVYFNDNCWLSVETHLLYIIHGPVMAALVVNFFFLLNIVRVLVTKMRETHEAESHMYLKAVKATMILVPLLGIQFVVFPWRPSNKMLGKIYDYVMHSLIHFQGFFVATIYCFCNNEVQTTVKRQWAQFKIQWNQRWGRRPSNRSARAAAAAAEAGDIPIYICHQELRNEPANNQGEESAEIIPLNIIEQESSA
# T1 sequence (looked up) 2: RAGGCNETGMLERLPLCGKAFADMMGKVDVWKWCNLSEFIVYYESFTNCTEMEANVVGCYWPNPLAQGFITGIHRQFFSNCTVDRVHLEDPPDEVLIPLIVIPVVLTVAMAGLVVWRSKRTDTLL
# Assay comment: cell-based or functional assay
Numbered stars: 1 amine (or outer) side, 2 acyl side, 3 side chain; on linkers, the order of the positions; unused ones are H or OH. Bridge positions count the residues as written; N and C are the ends. Square brackets hold non-standard residues; d marks the D form. Side chains are listed from the residue outwards. Ends that are not written are not given here. * marks the point of attachment. C20 diacid = O=C(O)CCCCCCCCCCCCCCCCCCC(=O)*; C18 diacid = O=C(O)CCCCCCCCCCCCCCCCC(=O)*; γGlu = O=C(O)[C@H](CCC(=O)[*:2])N[*:1]; Hyp = O=C(O)[C@@H]1C[C@@H](O)CN1; AEEA = NCCOCCOCC(=O)O; Aib = CC(C)(N)C(=O)O
Reported metric: Ratio (EC50 hCTR / EC50 hAMYR3)
Could you keep your reply to the number by itself?

Look up Ratio (EC50 hCTR / EC50 hAMYR3): K([AEEA-AEEA-γGlu-C18 diacid])GGGKCNTATCATQRLANFLVHSSNNFGPILPPTNVGSNTY-NH2 (disulfide 6-11) [Peptide 7 (SEQ ID NO: 7)]
12

Look up Ratio (EC50 hCTR / EC50 hAMYR3): K([γGlu-γGlu-C18 diacid])CNTATCATQRLANFLVHSS[Aib]NFGPILPPT[Aib]VGSNTY-NH2 (disulfide 2-7) [Peptide 89 (SEQ ID NO: 89)]
18

Look up Ratio (EC50 hCTR / EC50 hAMYR3): K([γGlu-γGlu-C20 diacid])CNTATCATQRLANFLVHSS[Aib]NF[Hyp]AILSPTNVGSNTY-NH2 (disulfide 2-7; not fully specified; printed as K(γE-γE-C20diacid)[CNTATC]ATQRLANFLVHSS(Aib)NF(Hyp)AILSPTNVGSNTY-amide) [Peptide 121 (SEQ ID NO: 121)]
5

Look up Ratio (EC50 hCTR / EC50 hAMYR3): K([AEEA-AEEA-γGlu-C18 diacid])CNTATCATQRLANFLVHSSNNFGPILPPTNVGSNTY-NH2 (disulfide 2-7) [Peptide 6 (SEQ ID NO: 6)]
5
